target: GABA-A receptor; anion channel; test: Binding affinity towards benzodiazepine/GABA A receptor.; type: protein-complex assay; parameters: unit not given here
Label rule, in plain words: Log IC50 of -1 and up is t, under -1 is f.

COMPOUND	GROUP
O=C1CN=C(c2ccccc2F)c2cc(F)ccc2N1	t
O=C1CN=C(c2c(F)cccc2F)c2ccccc2N1	f
CN1C(=O)CN=C(c2c(F)cccc2F)c2cc(Br)ccc21	t
CN1C(=O)CN=C(c2c(Cl)cccc2Cl)c2cc(Cl)ccc21	t
CC(C)(C)N1C(=O)CN=C(c2ccccc2)c2cc(Cl)ccc21	f
O=C1CN=C(c2c(F)cccc2F)c2cc(Cl)ccc2N1	t
O=C1CN=C(c2c(F)cccc2F)c2ccc(Cl)cc2N1	f
O=C1CN=C(c2ccccc2Cl)c2cc([N+](=O)[O-])ccc2N1	t
CN1C(=O)CN=C(c2ccccc2Cl)c2cc([N+](=O)[O-])ccc21	t
O=C1CN=C(c2ccccc2F)c2cc(Cl)ccc2N1	t
O=C1CN=C(c2ccccc2F)c2cc([N+](=O)[O-])ccc2N1	t
CN1C(=O)CN=C(c2ccccc2Cl)c2ccccc21	t
O=C1CN=C(c2ccccc2)c2cc(F)ccc2N1	f
CN1C(=O)CN=C(c2ccccc2)c2cc(N)ccc21	f
CN1C(=O)CN=C(c2ccccc2F)c2cc(N)ccc21	f
O=C1CN=C(c2c(Cl)cccc2Cl)c2cc(Cl)ccc2N1	t
CCc1ccc2c(c1)C(c1ccccc1)=NCC(=O)N2	f
Nc1ccc2c(c1)C(c1ccccc1)=NCC(=O)N2	f
COCN1C(=O)CN=C(c2ccccc2)c2cc([N+](=O)[O-])ccc21	f
CN1C(=O)CN=C(c2ccccc2F)c2cc(NO)ccc21	f
Cc1ccc2c(c1)NC(=O)CN=C2c1ccccc1F	f
CC(C)(C)N1C(=O)CN=C(c2ccccc2F)c2cc([N+](=O)[O-])ccc21	f
CN1C(=O)CN=C(c2ccccc2)c2cc(F)ccc21	f
Nc1ccc2c(c1)C(c1ccccc1Cl)=NCC(=O)N2	f
CN1C(=O)C(O)N=C(c2ccccc2)c2cc(Cl)ccc21 (centres undefined)	f
O=C1CN=C(c2ccccc2F)c2ccccc2N1	f
O=C1CN=C(c2ccccc2)c2cc(C(F)(F)F)ccc2N1	f
[N-]=[N+]=Nc1ccc2c(c1)C(c1ccccc1F)=NCC(=O)N2	t
CN1C(=O)CN=C(c2ccccc2F)c2cc(I)ccc21	t
CC1N=C(c2ccccc2)c2cc(Cl)ccc2N(Cl)C1=O (centres undefined)	f
O=C1CN=C(c2ccccc2)c2cc(Cl)ccc2N1CC(F)(F)F	f
CN1C(=O)CN=C(c2ccccc2)c2cc(C#N)ccc21	f
O=Cc1ccc2c(c1)C(c1ccccc1)=NCC(=O)N2	f
O=C1CN=C(c2ccccc2C(F)(F)F)c2cc([N+](=O)[O-])ccc2N1	t
O=C1Nc2ccc(Cl)cc2C(c2ccccc2F)=NC1Cl (centres undefined)	t
C=Cc1ccc2c(c1)C(c1ccccc1)=NCC(=O)N2	f
CN1C(=O)CN=C(c2ccccc2F)c2cc(F)ccc21	t
CN1C(=O)CN=C(c2ccccc2)c2cc(Cl)c(Cl)cc21	f
O=C1CN=C(c2ccccc2Cl)c2cc(Cl)ccc2N1	t
CN1C(=O)CN=C(c2ccccc2F)c2cc(C#N)ccc21	f
CN1C(=O)CN=C(c2c(F)cccc2F)c2cc(Cl)ccc21	t
CN1C(=O)CN=C(c2ccccc2F)c2ccccc21	f

# credit: ChEMBL document CHEMBL1128247
